Tested on: Mycobacterium tuberculosis
Method Description: Antimycobacterial activity against multi-drug resistant Mycobacterium tuberculosis 7357/1998 after 14 days
Format: functional
Condition Label: 7357/1998, 336 h
Hi! Just check whether MIC99 is below 0.2 µM. Below gives TRUE, equal or above gives FALSE.

compound_smiles=O=[N+]([O-])c1cc(-c2nnc(SCc3ccccc3)n2Cc2ccccc2)cc(C(F)(F)F)c1 class_label=TRUE
compound_smiles=Cn1c(SCc2ccccc2)nnc1-c1cc([N+](=O)[O-])cc([N+](=O)[O-])c1 class_label=TRUE
compound_smiles=COc1ccc(CSc2nnc(-c3cc([N+](=O)[O-])cc(C(F)(F)F)c3)n2Cc2ccccc2)cc1 class_label=FALSE
compound_smiles=CCCCCCCCSc1nnc(-c2cc([N+](=O)[O-])cc([N+](=O)[O-])c2)n1Cc1ccccc1 class_label=FALSE
compound_smiles=COc1ccc(Cn2c(SCc3cc([N+](=O)[O-])cc([N+](=O)[O-])c3)nnc2-c2ccccc2)cc1 class_label=FALSE
compound_smiles=O=[N+]([O-])c1cc(-c2nnc(SCc3ccc(Cl)cc3)n2Cc2ccccc2)cc([N+](=O)[O-])c1 class_label=FALSE
compound_smiles=CCn1c(SCc2ccccc2)nnc1-c1cc([N+](=O)[O-])cc([N+](=O)[O-])c1 class_label=TRUE
compound_smiles=COc1ccc(CSc2nnc(-c3cc([N+](=O)[O-])cc([N+](=O)[O-])c3)n2Cc2ccccc2)cc1 class_label=TRUE
compound_smiles=Cn1c(SCc2ccc(Cl)c(Cl)c2)nnc1-c1cc([N+](=O)[O-])cc([N+](=O)[O-])c1 class_label=TRUE
compound_smiles=CCCSc1nnc(-c2cc([N+](=O)[O-])cc([N+](=O)[O-])c2)n1Cc1ccccc1 class_label=TRUE
compound_smiles=O=[N+]([O-])c1cc(-c2nnc(SCc3ccc(Cl)c(Cl)c3)n2Cc2ccccc2)cc([N+](=O)[O-])c1 class_label=FALSE
compound_smiles=O=[N+]([O-])c1cc(-c2nnc(SCc3ccccc3)n2Cc2ccccc2)cc([N+](=O)[O-])c1 class_label=TRUE
compound_smiles=O=[N+]([O-])c1cc(-c2nnc(SCc3ccc(Cl)c(Cl)c3)n2Cc2ccccc2)cc(C(F)(F)F)c1 class_label=FALSE
compound_smiles=CCCCCCn1c(SCc2cc([N+](=O)[O-])cc([N+](=O)[O-])c2)nnc1-c1ccccc1 class_label=FALSE
compound_smiles=O=[N+]([O-])c1cc(-c2nnc(SCc3ccc(Br)cc3)n2Cc2ccccc2)cc([N+](=O)[O-])c1 class_label=FALSE
